# Tested on: Diabrotica balteata (rootworm larvae)
# assay.text: Residual test on rootworm larvae (DB), Filter paper/maize seed, mortality
# Format: in vivo
# recorded.conditions: 48 h, 500 ppm, residual, 2 days, read-out: DB grading of mortality
recorded.endpoint: mortality at 500 ppm

molecule="COc1c(F)c(COC(C)C)c(F)c(F)c1COC(=O)C(c1cnc(C(C)(C)C)nc1)C(C)(C)C (racemic)" result="< 50%"
molecule="CC(C)(C)c1ncc(C(C(=O)OCc2cccc(Oc3ccc(Cl)cc3)c2)C(C)(C)C)cn1 (racemic)" result="< 50%"
molecule="CC(OC(=O)C(c1cnc(C2CC2)nc1)C(C)(C)C)c1cccc(Oc2ccccc2)n1 (racemic)" result="80 to 100%"
molecule="CC(C)(C)C(=O)OCc1c(F)c(F)c(COC(=O)C(c2cnc(C(C)(C)C)nc2)C(C)(C)C)c(F)c1F (racemic)" result="< 50%"
molecule="CCC(C)(C)c1ncc(C(C(=O)OCc2c(F)c(F)c(COC)c(F)c2F)C(C)(C)C)cn1 (racemic)" result="< 50%"
molecule="CC(C)(C)c1ncc(C(C(=O)OCc2c(F)c(F)c(CN3CCCCC3)c(F)c2F)C(C)(C)C)cn1 (racemic)" result="< 50%"
molecule="COCc1c(F)c(F)c(COC(=O)C(c2cnc(C(C)C)nc2)C(C)(C)C)c(F)c1F (racemic)" result="80 to 100%"
molecule="CC(C)(C)c1ncc(C(C(=O)OCc2cccc(Oc3ccccc3)n2)C(C)(C)C)cn1 (racemic)" result="50 to 79%"
molecule="COCc1c(F)c(F)c(COC(=O)C(c2cnc(C(C)(C)C)nc2)C(F)(F)F)c(F)c1F (racemic)" result="< 50%"
molecule="CC(=O)OCc1c(F)c(F)c(COC(=O)C(c2cnc(C(C)(C)C)nc2)C(C)(C)C)c(F)c1F (racemic)" result="80 to 100%"
molecule="CC(C)(C)SCc1c(F)c(F)c(COC(=O)C(c2cnc(C(C)(C)C)nc2)C(C)(C)C)c(F)c1F (racemic)" result="< 50%"
molecule="CC(C)C(=O)OCc1c(F)c(F)c(COC(=O)C(c2cnc(C(C)(C)C)nc2)C(C)(C)C)c(F)c1F (racemic)" result="< 50%"
molecule="C=CC(C)(C)C(C(=O)OCc1c(F)c(F)c(COC)c(F)c1F)c1cnc(C(C)(C)C)nc1 (racemic)" result="< 50%"
molecule="COCc1c(F)c(F)c(COC(=O)C(c2cnc(C)nc2)C(C)(C)C)c(F)c1F (racemic)" result="< 50%"

###

# System: Diabrotica balteata (rootworm larvae)
# assay.text: Residual test on rootworm larvae (DB), Filter paper/maize seed, mortality
# Format: in vivo
# recorded.conditions: 48 h, 500 ppm, residual, * test duration of 3 days, read-out: DB grading of mortality
recorded.endpoint: mortality at 500 ppm

molecule="C#CCc1c(F)c(F)c(COC(=O)C(c2cnc(C(C)(C)C)nc2)C(C)(C)C)c(F)c1F (racemic) [Compound 12]" result="80 to 100%"
molecule="COCc1c(F)c(F)c(COC(=O)C(c2cnc(C(C)(C)C)nc2)C2CC2)c(OC)c1F (racemic) [Compound 92]" result="< 50%"
molecule="CC[C@@H](C(=O)O[C@@H](C#N)c1ccc(F)c(Oc2ccccc2)c1)c1cnc(C(C)(C)C)nc1 (racemic) [Compound 121]" result="80 to 100%"
molecule="C#CCc1c(F)c(F)c(COC(=O)C(c2cnc(C(F)(F)F)nc2)C(C)C)c(F)c1F (racemic) [Compound 87]" result="80 to 100%"
molecule="CCC(C(=O)OCc1c(F)c(F)c(C)c(F)c1F)c1cnc(C(C)(C)C)nc1 (racemic) [Compound 122]" result="50 to 79%"
molecule="COCc1c(F)c(F)c(COC(=O)C(c2cnc(Cl)nc2)C(C)C)c(F)c1F (racemic) [Compound 118]" result="< 50%"
molecule="C=CCc1c(F)c(F)c(COC(=O)C(c2cnc(C(F)(F)F)nc2)C(C)C)c(F)c1F (racemic) [Compound 114]" result="80 to 100%"
molecule="COCc1c(F)c(F)c(COC(=O)C(c2cnc(C(C)(C)C)nc2)C(C)(C)C)c(F)c1F (racemic) [Compound 15]" result="80 to 100%"
molecule="C=CCc1c(F)c(F)c(COC(=O)C(c2cnc(C)nc2)C(C)C)c(F)c1F (racemic) [Compound 119]" result="80 to 100%"
molecule="C=CCc1c(F)c(F)c(COC(=O)C(c2cnc(-c3ccccc3)nc2)C(C)C)c(F)c1F (racemic) [Compound 113]" result="< 50%"
